tested.target: human TLR8 (Homo sapiens, UniProt Q9NR97)
Construct: expressed in transfected cells
Sequence (Q9NR97 27-1041): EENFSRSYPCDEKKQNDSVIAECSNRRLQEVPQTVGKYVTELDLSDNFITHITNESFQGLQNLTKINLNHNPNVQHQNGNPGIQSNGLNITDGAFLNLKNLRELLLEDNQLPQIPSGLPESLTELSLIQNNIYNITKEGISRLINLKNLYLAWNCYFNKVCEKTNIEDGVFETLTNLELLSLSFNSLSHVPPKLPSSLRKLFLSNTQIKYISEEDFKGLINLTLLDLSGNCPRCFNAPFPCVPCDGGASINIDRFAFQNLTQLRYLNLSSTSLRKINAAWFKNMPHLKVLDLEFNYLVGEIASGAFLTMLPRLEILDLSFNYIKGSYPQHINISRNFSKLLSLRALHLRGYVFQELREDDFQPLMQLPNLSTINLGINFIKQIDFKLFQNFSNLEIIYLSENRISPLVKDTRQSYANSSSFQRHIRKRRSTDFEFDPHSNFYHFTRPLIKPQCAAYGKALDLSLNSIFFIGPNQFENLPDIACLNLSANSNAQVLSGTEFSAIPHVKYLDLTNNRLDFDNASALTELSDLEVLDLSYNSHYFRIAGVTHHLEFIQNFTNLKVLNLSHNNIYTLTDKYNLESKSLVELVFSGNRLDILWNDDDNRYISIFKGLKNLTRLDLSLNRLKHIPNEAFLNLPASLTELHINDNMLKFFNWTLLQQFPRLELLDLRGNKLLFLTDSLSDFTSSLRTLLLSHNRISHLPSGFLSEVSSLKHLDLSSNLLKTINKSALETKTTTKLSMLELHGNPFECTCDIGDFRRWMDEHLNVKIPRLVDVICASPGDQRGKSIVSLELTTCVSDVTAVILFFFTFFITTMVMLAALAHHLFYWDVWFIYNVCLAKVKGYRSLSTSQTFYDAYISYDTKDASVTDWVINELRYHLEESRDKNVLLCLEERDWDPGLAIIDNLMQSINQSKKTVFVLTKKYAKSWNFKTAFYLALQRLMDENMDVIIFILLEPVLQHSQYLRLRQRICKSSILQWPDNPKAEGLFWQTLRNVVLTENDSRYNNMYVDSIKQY
protocol.description: HEK-Blue hTLR8 SEAP reporter gene inhibition assay
Type: cell-based
assay.conditions: hTLR8 HEK-Blue cells, TLR8 ligand 10 µM, 20 hours, SEAP by Quanti-blue; class symbols; read-out: HEK-Blue hTLR8 IC50
pIC50: −log10 of the molar value.
Measured pIC50, listed per entry.

Recorded results for 4 molecules are shown here.
C[C@@H]1CN(c2ccc(C#N)n3ncc(F)c23)Cc2c3c(nn21)CC(N(C)C)CC3 (stereo partly shown) ... > 7.00
C[C@@H]1CN(c2ccc(C#N)n3ncc(F)c23)Cc2c3c(nn21)CN(C1CCC1O)[C@@H](C)C3 (stereo partly shown) ... < 7.00
C[C@@H]1CN(c2ccc(C#N)n3ncc(F)c23)Cc2c3c(nn21)CN(CC1(C(N)=O)CC1)[C@@H](C)C3 ... < 7.00
C[C@@H]1CN(c2ccc(C#N)n3ncc(F)c23)Cc2c3c(nn21)CNCC3O (stereo partly shown) ... < 7.00

Input `C[C@@H]1CN(c2ccc(C#N)n3ncc(F)c23)Cc2c3c(nn21)CN[C@@H](CO)C3` . Output pIC50: > 7.00

Input `C[C@@H]1CN(c2ccc(C#N)n3ncc(F)c23)Cc2c3c(nn21)CNC(C)(C)C3` . Output pIC50: > 7.00

Input `C[C@@H]1CN(c2ccc(C#N)n3ncc(F)c23)Cc2c3c(nn21)CN(C[C@](C)(O)CO)[C@@H](C)C3` . Output pIC50: < 7.00

Source: patent EP4644396A1
